Taken from PubChem BioAssay AID1347385.

- experimental details: compounds reducing fatty acid uptake into lipids – ZR-82 cells, Enamine library, screen 3, primary screen (AID 1347385);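 further: 3 h compound exposure then viability read about one day after UV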
- run conditions: ZR-82 CHO cells, pyrene fatty acid UV survival, CellTiter Blue, peroxisome-deficient CHO-K1 mutant line, plus DGAT-1, DGAT-2 and ACAT inhibitors; at 10 µM unless noted
About 85 (0.4%) of roughly 20,000 compounds were called active.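 How the source made its calls: active means cell survival signal 2 SD away from solvent-only control wells, confirmed on one or two retests; inactive means the rest.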 Shown is part of a subset that was picked to be rich in actives.
Give one outcome, nothing more. List: active, inactive

// known answers, use as guide
>>> df
                            molecule_smiles  label_class
0    S=c1n(CN2CCOCC2)nc(Cc2cccs2)n1C1CCCCC1     inactive
1  FC(F)(F)C(=NCc1ccco1)NC1(C(Cl)(Cl)Cl)Oc2ccccc2O1     inactive
2           O=C(Nc1ccccc1)Nc1ccc(Cl)c(Cl)c1       active

Here is another compound to look at.
Please share the test call associated with Clc1ccc(Cl)c(-c2ccc(-c3ncc(-c4cccs4)o3)o2)c1 .
inactive
